Values compiled from patent US10294248B2.

TARGET SYSTEM: KPC-2 β-lactamase (Class A carbapenemase) (Klebsiella pneumoniae)
EXPERIMENT SUMMARY: β-Lactamase inhibition, KPC-2
CONDITION SET: imipenem substrate, 300 nm; 15 min preincubation at 37° C., PBS pH 7.4
MEASUREMENT NAME: IC50

Sample answers from the record:
NCC1CCCN(CC(=O)N[C@H]2Cc3cccc(C(=O)O)c3OB2O)C1 (stereo partly drawn) ... 100 to 1000 nM
O=C(CN1CCCNCC1)N[C@H]1Cc2cccc(C(=O)O)c2OB1O ... 1000 to 10000 nM
O=C(O)c1cccc2c1OB(O)[C@@H](NC(=O)C1CNC1)C2 ... 100 to 1000 nM
O=C(CN1CCN(CCO)CC1)N[C@H]1Cc2cccc(C(=O)O)c2OB1O ... 100 to 1000 nM
O=C(O)CN1CCN(CC(=O)N[C@H]2Cc3cccc(C(=O)O)c3OB2O)CC1 ... 100 to 1000 nM

Task item: For the molecule O=C(COC1CCNCC1)N[C@H]1Cc2cccc(C(=O)O)c2OB1O , give its measured IC50 value.
Reply: < 100 nM

Task item: For the molecule N[C@@H]1CCN(CC(=O)N[C@H]2Cc3cccc(C(=O)O)c3OB2O)C1 , give its measured IC50 value.
Reply: 100 to 1000 nM

Task item: For the molecule NCCN1CCC(CCC(=O)N[C@H]2Cc3cccc(C(=O)O)c3OB2O)CC1 , give its measured IC50 value.
Reply: < 100 nM

Task item: For the molecule O=C(CN1CCNCC1)N[C@H]1Cc2cccc(C(=O)O)c2OB1O , give its measured IC50 value.
Reply: < 100 nM

---

Entries annotated with measured IC50
TARGET SYSTEM: OXA-1 β-lactamase (Class D oxacillinase) (Escherichia coli, UniProt P13661)
Sequence (P13661 26-276): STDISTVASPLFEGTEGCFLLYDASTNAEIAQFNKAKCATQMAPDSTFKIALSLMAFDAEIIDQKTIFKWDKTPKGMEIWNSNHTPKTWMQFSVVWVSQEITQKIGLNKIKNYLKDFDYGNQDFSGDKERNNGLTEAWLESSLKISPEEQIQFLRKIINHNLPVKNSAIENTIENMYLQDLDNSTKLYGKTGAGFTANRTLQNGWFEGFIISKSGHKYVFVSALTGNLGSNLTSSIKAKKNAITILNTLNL
EXPERIMENT SUMMARY: β-Lactamase inhibition, OXA-1
CONDITION SET: nitrocefin 100 μM, 486 nm; 15 min preincubation at 37° C., PBS pH 7.4

Sample answers from the record:
O=C(CN1CCCNCC1)N[C@H]1Cc2cccc(C(=O)O)c2OB1O [Example 13] ... 100 to 1000 nM
NC1CCN(CCC(=O)N[C@H]2Cc3cccc(C(=O)O)c3OB2O)CC1 [Example 22] ... 100 to 1000 nM
NCC1CN(CC(=O)N[C@H]2Cc3cccc(C(=O)O)c3OB2O)CCC1N (stereo partly drawn) [Example 29] ... 100 to 1000 nM

Task item: Give IC50 only, for NC1CCN(CC(=O)N[C@H]2Cc3cccc(C(=O)O)c3OB2O)CC1N (stereo partly drawn) [Example 28] , using OXA-1 β-lactamase (Class D oxacillinase) (Escherichia coli, UniProt P13661) data.
Reply: < 100 nM

Task item: Give IC50 only, for NCCC(=O)NC1CCN(CC(=O)N[C@H]2Cc3cccc(C(=O)O)c3OB2O)CC1 [Example 27] , using OXA-1 β-lactamase (Class D oxacillinase) (Escherichia coli, UniProt P13661) data.
Reply: 100 to 1000 nM

Task item: Give IC50 only, for N[C@H]1CCCN(CC(=O)N[C@H]2Cc3cccc(C(=O)O)c3OB2O)C1 [Example 11] , using OXA-1 β-lactamase (Class D oxacillinase) (Escherichia coli, UniProt P13661) data.
Reply: 100 to 1000 nM

---

TARGET SYSTEM: KPC-2 β-lactamase (Class A carbapenemase) (Klebsiella pneumoniae, UniProt Q9F663)
Sequence (Q9F663 25-293, looked up): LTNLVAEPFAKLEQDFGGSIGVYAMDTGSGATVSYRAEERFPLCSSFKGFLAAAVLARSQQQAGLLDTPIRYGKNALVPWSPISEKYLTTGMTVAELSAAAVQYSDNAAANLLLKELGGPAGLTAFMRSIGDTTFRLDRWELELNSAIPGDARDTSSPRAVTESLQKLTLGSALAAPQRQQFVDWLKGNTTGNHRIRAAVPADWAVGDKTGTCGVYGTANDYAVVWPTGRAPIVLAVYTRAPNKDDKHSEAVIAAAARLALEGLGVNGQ
EXPERIMENT SUMMARY: β-Lactamase inhibition, KPC-2
CONDITION SET: imipenem substrate, 300 nm; 15 min preincubation at 37° C., PBS pH 7.4
pIC50: −log10 of the molar value.
MEASUREMENT NAME: pIC50

NC1CCN(CC(=O)N[C@H]2Cc3cccc(C(=O)O)c3OB2O)CC1N (some centres unmarked) ... > 7.00
O=C(CN1CCN(c2ccccn2)CC1)N[C@H]1Cc2cccc(C(=O)O)c2OB1O ... 6.00 to 7.00
N[C@H]1CCN(CC(=O)N[C@H]2Cc3cccc(C(=O)O)c3OB2O)C1 ... 6.00 to 7.00
O=C(O)c1cccc2c1OB(O)[C@@H](NC(=O)C1CCNCC1)C2 ... > 7.00

Please look at the following compound next.
Task item: For the compound NC1CN(CC(=O)N[C@H]2Cc3cccc(C(=O)O)c3OB2O)CCC1O (some centres unmarked) , give its measured pIC50 value.
Reply: 6.00 to 7.00

---

TARGET SYSTEM: VIM-2 metallo-β-lactamase (Class B) (Pseudomonas aeruginosa, UniProt Q9K2N0)
EXPERIMENT SUMMARY: β-Lactamase inhibition, VIM-2
CONDITION SET: nitrocefin 100 μM, 486 nm; 15 min preincubation at 37° C., PBS pH 7.4
pIC50: −log10 of the molar value.
Entries annotated with measured pIC50

Sample answers from the record:
O=C(CN[C@@H]1CCNC1)N[C@H]1Cc2cccc(C(=O)O)c2OB1O [Example 9] ... 4.00 to 5.00
N=C(N)NCCN1CCC(CCC(=O)N[C@H]2Cc3cccc(C(=O)O)c3OB2O)CC1 [Example 34] ... 4.00 to 5.00
N[C@@H]1CCCN(CC(=O)N[C@H]2Cc3cccc(C(=O)O)c3OB2O)C1 [Example 10] ... 5.00 to 6.00
NC1CCN(CCC(=O)N[C@H]2Cc3cccc(C(=O)O)c3OB2O)CC1 [Example 22] ... 5.00 to 6.00

Task item: For the compound N=C(N)N1CCC(CC(=O)N[C@H]2Cc3cccc(C(=O)O)c3OB2O)CC1 [Example 33] , give its measured pIC50 value.
Reply: 5.00 to 6.00

Task item: For the compound NCCCN1CCC(CC(=O)N[C@H]2Cc3cccc(C(=O)O)c3OB2O)CC1 [Example 42] , give its measured pIC50 value.
Reply: 5.00 to 6.00

Task item: For the compound NCCNC1CCN(CC(=O)N[C@H]2Cc3cccc(C(=O)O)c3OB2O)CC1 [Example 30] , give its measured pIC50 value.
Reply: 5.00 to 6.00

---

TARGET SYSTEM: SHV-5 β-lactamase (Class A ESBL) (Klebsiella pneumoniae, UniProt P0A3M1)
Sequence (P0A3M1 22-286): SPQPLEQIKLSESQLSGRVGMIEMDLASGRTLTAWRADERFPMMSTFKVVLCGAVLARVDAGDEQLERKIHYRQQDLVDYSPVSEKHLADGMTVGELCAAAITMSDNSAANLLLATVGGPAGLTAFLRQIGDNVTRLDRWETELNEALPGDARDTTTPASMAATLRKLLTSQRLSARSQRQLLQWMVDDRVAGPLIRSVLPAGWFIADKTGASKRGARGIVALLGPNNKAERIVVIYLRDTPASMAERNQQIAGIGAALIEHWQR
EXPERIMENT SUMMARY: β-Lactamase inhibition, SHV-5
Entries annotated with measured IC50

N[C@@H]1CCN(CC(=O)N[C@H]2Cc3cccc(C(=O)O)c3OB2O)C1 [Example 6] ... < 0.1 µM
NC1CCN(CC(=O)N[C@H]2Cc3cccc(C(=O)O)c3OB2O)CC1 [Example 1] ... < 0.1 µM
N=C(N)NCC1CCCN(CC(=O)N[C@H]2Cc3cccc(C(=O)O)c3OB2O)C1 (stereo partly drawn) [Example 37] ... 0.1 to 1 µM
O=C(CN1CCNCC1=O)N[C@H]1Cc2cccc(C(=O)O)c2OB1O [Example 8] ... 10 to 100 µM
O=C(CN1CCN(c2nccs2)CC1)N[C@H]1Cc2cccc(C(=O)O)c2OB1O [Example 15] ... 0.1 to 1 µM

Task item: For the compound CNC1CCN(CC(=O)N[C@H]2Cc3cccc(C(=O)O)c3OB2O)CC1O (stereo partly drawn) [Example 20] , give its measured IC50 value.
Reply: 0.1 to 1 µM

Task item: For the compound NC1CN(CC(=O)N[C@H]2Cc3cccc(C(=O)O)c3OB2O)CCC1O (stereo partly drawn) [Example 26] , give its measured IC50 value.
Reply: 0.1 to 1 µM

Task item: For the compound O=C(CN1CCCNCC1)N[C@H]1Cc2cccc(C(=O)O)c2OB1O [Example 13] , give its measured IC50 value.
Reply: 0.1 to 1 µM

Task item: For the compound O=C(O)c1cccc2c1OB(O)[C@@H](NC(=O)C1CN(c3ncccn3)C1)C2 [Example 48] , give its measured IC50 value.
Reply: < 0.1 µM

Task item: For the compound CNC1CCN(CC(=O)N[C@H]2Cc3cccc(C(=O)O)c3OB2O)CC1 [Example 14] , give its measured IC50 value.
Reply: 0.1 to 1 µM

Task item: For the compound N=C(N)NCCN1CCC(CCC(=O)N[C@H]2Cc3cccc(C(=O)O)c3OB2O)CC1 [Example 34] , give its measured IC50 value.
Reply: < 0.1 µM

Task item: For the compound N[C@H]1CCN(CC(=O)N[C@H]2Cc3cccc(C(=O)O)c3OB2O)C1 [Example 7] , give its measured IC50 value.
Reply: < 0.1 µM

Task item: For the compound O=C(O)c1cccc2c1OB(O)[C@@H](NC(=O)C1CCNCC1)C2 [Example 44] , give its measured IC50 value.
Reply: < 0.1 µM

Task item: For the compound COC1CN(CC(=O)N[C@H]2Cc3cccc(C(=O)O)c3OB2O)CCC1N (stereo partly drawn) [Example 21] , give its measured IC50 value.
Reply: < 0.1 µM

Task item: For the compound NCC1CCCN(CC(=O)N[C@H]2Cc3cccc(C(=O)O)c3OB2O)C1 (stereo partly drawn) [Example 19] , give its measured IC50 value.
Reply: < 0.1 µM

Task item: For the compound NCCN1CCN(CC(=O)N[C@H]2Cc3cccc(C(=O)O)c3OB2O)CC1 [Example 16] , give its measured IC50 value.
Reply: < 0.1 µM

Task item: For the compound CN(C)c1ccc(NC(=O)N2CC(C(=O)N[C@H]3Cc4cccc(C(=O)O)c4OB3O)C2)cc1 [Example 47] , give its measured IC50 value.
Reply: < 0.1 µM

Task item: For the compound NCC(=O)N1CCN(CC(=O)N[C@H]2Cc3cccc(C(=O)O)c3OB2O)CC1 [Example 17] , give its measured IC50 value.
Reply: < 0.1 µM

Task item: For the compound O=C(COC1CCNCC1)N[C@H]1Cc2cccc(C(=O)O)c2OB1O [Example 39] , give its measured IC50 value.
Reply: 0.1 to 1 µM

Task item: For the compound O=C(CNC1CCNCC1)N[C@H]1Cc2cccc(C(=O)O)c2OB1O [Example 40] , give its measured IC50 value.
Reply: < 0.1 µM

Task item: For the compound NC1CCN(CC(=O)N[C@H]2Cc3cccc(C(=O)O)c3OB2O)CC1N (stereo partly drawn) [Example 28] , give its measured IC50 value.
Reply: 10 to 100 µM

Task item: For the compound NCCN1CCC(NCC(=O)N[C@H]2Cc3cccc(C(=O)O)c3OB2O)CC1 [Example 52] , give its measured IC50 value.
Reply: < 0.1 µM

Task item: For the compound O=C(CN1CCN(c2ccccn2)CC1)N[C@H]1Cc2cccc(C(=O)O)c2OB1O [Example 2] , give its measured IC50 value.
Reply: < 0.1 µM

Task item: For the compound NC1(C(=O)N[C@H]2Cc3cccc(C(=O)O)c3OB2O)CCNCC1 [Example 49] , give its measured IC50 value.
Reply: < 0.1 µM
